As shown below, each of these compounds has a reported remaining at 2 h value.
Assay: Stability in mouse plasma assessed as compound remaining measured after 2 hrs by LC-MS/MS analysis
Type: ADME, cell-free
Settings: read-out: Stability
Numbers only; they are read as %.

These recorded examples may help you get a feel for the data.
COc1cc2c(N3CCCCC3)nc(NCc3ccc(F)cc3)nc2cc1OC1CCCC1 | 96.9
COc1cc2c(N3CCOCC3)nc(NCc3ccc(F)cc3)nc2cc1OC1CCCC1 | 95.6
COc1cc2c(N(C)C)nc(NCc3ccc(F)cc3)nc2cc1OC1CCCC1 | 91.6
COc1cc2c(N3CCCCC3)nc(NCc3ccc(F)cc3)nc2cc1OC1CCNC1 (stereo unspecified) | 99.1
Clc1ccc(CNc2nc(N3CCCCC3)c3cc4c(cc3n2)OCO4)cc1 | 97.4

Input line: Please give measured remaining at 2 h of the following entry: `COc1cc2c(N3CCCCC3)nc(NCc3ccc(Cl)cc3)nc2cc1OC1CCCC1`
Output line: 92.2

Input line: Please give measured remaining at 2 h of the following entry: `CNc1nc(NCc2ccc(F)cc2)nc2cc(OC3CCCC3)c(OC)cc12`
Output line: 88.9

Input line: Please give measured remaining at 2 h of the following entry: `COc1cc2c(N3CCCCC3)nc(N(C)C)nc2cc1OC1CCCC1`
Output line: 80.1

Input line: Please give measured remaining at 2 h of the following entry: `COc1cc2c(N3CCCCC3)nc(NCc3ccc(C(F)(F)F)cc3)nc2cc1OC1CCCC1`
Output line: 88.1

Input line: Please give measured remaining at 2 h of the following entry: `COc1ccc(CNc2nc(N3CCCCC3)c3cc(OC)c(OCc4ccccc4)cc3n2)cc1`
Output line: 106

Input line: Please give measured remaining at 2 h of the following entry: `COc1cc2c(N3CCCCC3)nc(NCC3CCCCC3)nc2cc1OC1CCCC1`
Output line: 99.3

Input line: Please give measured remaining at 2 h of the following entry: `COc1cc2c(N3CCCCC3)nc(NCc3ccccc3)nc2cc1OC1CCCC1`
Output line: 88.7

====

Experiment: Selectivity index, ratio of CC50 for cytotoxicity against human HepG2 cells to IC50 for antileishmanial activity against Leishmania donovani MHOM/IN/1983/AG83 axenic amastigotes
Type: toxicity, cell-based
Conditions: read-out: Ratio CC50/IC50
property.label: selectivity ratio

These recorded examples may help you get a feel for the data.
CCCCCCCCCCCCCCCCOP(=O)([O-])OCC[N+](C)(C)C | 9.38
COc1cc2c(N3CCCCC3)nc(N(C)C)nc2cc1OC1CCCC1 | 9.65
COc1cc2c(N3CCCCC3)nc(NCc3ccc(F)cc3)nc2cc1OC1CCNC1 (stereo not given) | 2.18
COc1cc2c(N3CCCCC3)nc(NC(=O)c3ccc(F)cc3)nc2cc1OC1CCCC1 | > 15

Here is the next item to consider.
Input line: Please give measured selectivity ratio of the following entry: `COc1cc2c(N3CCCCC3)nc(NCc3ccc(Br)cc3)nc2cc1OC1CCCC1`
Output line: 10.9

====

Experiment: Cytotoxicity against human THP-1 cells incubated for 72 hrs by DAPI staining based analysis
Assay type: toxicity, cell-based
property.label: log10 CC50 at 72 h (log10 of the value in µM)
Lab note - CC50 at 72 h converted to log10 from values in µM.

These recorded examples may help you get a feel for the data.
COc1cc2c(N3CCCCC3)nc(NCC3CCCCC3)nc2cc1OC1CCCC1 | 0.84
COc1cc2c(N3CCCCC3)nc(Nc3ccc(Cl)cc3)nc2cc1OC1CCCC1 | 1.57
CCCCc1ccc(CNc2nc(N3CCCCC3)c3cc(OC)c(OC4CCCC4)cc3n2)cc1 | 0.76
COc1cc2c(N3CCCCC3)nc(N(C)C)nc2cc1OC1CCCC1 | 1.87
COc1cc2c(N3CCCCC3)nc(NCc3ccc(F)cc3)nc2cc1OCc1ccccc1 | 1.43

Input line: Please give measured log10 CC50 at 72 h of the following entry: `COc1cc2c(N3CCCCC3)nc(NC(=O)c3ccc(Cl)cc3)nc2cc1OC1CCCC1`
Output line: 0.88

Input line: Please give measured log10 CC50 at 72 h of the following entry: `COc1cc2c(N3CCCCC3)nc(NCc3ccccc3)nc2cc1OC1CCCC1`
Output line: 0.62

Input line: Please give measured log10 CC50 at 72 h of the following entry: `COc1cc2c(N3CCCCC3)nc(N(C)Cc3ccc(Br)cc3)nc2cc1OC1CCCC1`
Output line: 1.54

====

Test: Metabolic stability in human liver microsomes assessed as half-life preincubated for 10 mins and measured after 60 mins by LC-MS/MS analysis
Assay type: ADME, Microsome
property.label: half-life (min)
Numbers only; they are read as min.

These recorded examples may help you get a feel for the data.
COc1cc2c(N3CCCCC3)nc(NCc3ccccc3)nc2cc1OC1CCCC1 | 20.8
COc1cc2c(N(C)C)nc(NCc3ccc(F)cc3)nc2cc1OC1CCCC1 | 8.1
CNc1nc(NCc2ccc(F)cc2)nc2cc(OC3CCCC3)c(OC)cc12 | 11.4

Input line: Please give measured half-life of the following entry: `COc1cc2c(N3CCCCC3)nc(NCC3CCCCC3)nc2cc1OC1CCCC1`
Output line: 22.2

====

Assay: Stability in human plasma assessed as compound remaining measured after 2 hrs by LC-MS/MS analysis
Type: ADME, cell-free
Settings: read-out: Stability
property.label: remaining at 2 h (%)
Numbers only; they are read as %.

These recorded examples may help you get a feel for the data.
COc1cc2c(N3CCCCC3)nc(NCC3CCCCC3)nc2cc1OC1CCCC1 | 46
Clc1ccc(CNc2nc(N3CCCCC3)c3cc4c(cc3n2)OCO4)cc1 | 77.5

Input line: Please give measured remaining at 2 h of the following entry: `COc1cc2c(N3CCCCC3)nc(NCc3ccc(Br)cc3)nc2cc1OC1CCCC1`
Output line: 96.2

Input line: Please give measured remaining at 2 h of the following entry: COc1cc2c(N3CCCCC3)nc(NCc3ccc(F)cc3)nc2cc1OC1CCNC1 (stereo unspecified)
Output line: 99

Input line: Please give measured remaining at 2 h of the following entry: `CNc1nc(NCc2ccc(F)cc2)nc2cc(OC3CCCC3)c(OC)cc12`
Output line: 73.2

Input line: Please give measured remaining at 2 h of the following entry: `COc1cc2c(N3CCCCC3)nc(NCc3ccc(Cl)cc3)nc2cc1OC1CCCC1`
Output line: 103

====

As shown below, each of these compounds has a reported CC50 at 72 h value.
Assay: Cytotoxicity against human THP-1 cells incubated for 72 hrs by DAPI staining based analysis
Type: toxicity, cell-based
Numbers only; they are read as µM.

These recorded examples may help you get a feel for the data.
COc1cc2c(N3CCCCC3)nc(NCc3ccccc3)nc2cc1O | 30.2
COc1cc2c(N3CCCCC3)nc(N)nc2cc1OCc1ccccc1 | 15.4
COc1cc2c(N3CCCCC3)nc(NS(C)(=O)=O)nc2cc1OC1CCCC1 | 57.9
COc1ccc(CNc2nc(N3CCCCC3)c3cc(OC)c(OC4CCCC4)cc3n2)cc1 | 4.56
COc1cc2c(N3CCCCC3)nc(NCc3ccc(C(F)(F)F)cc3)nc2cc1OC1CCCC1 | 28.1

Input line: Please give measured CC50 at 72 h of the following entry: `Clc1ccc(CNc2nc(N3CCCCC3)c3cc4c(cc3n2)OCO4)cc1`
Output line: 13.8

Input line: Please give measured CC50 at 72 h of the following entry: `COc1cc2c(N3CCCCC3)nc(NC3CCCCC3)nc2cc1OC1CCCC1`
Output line: 10.2

Input line: Please give measured CC50 at 72 h of the following entry: `COc1cc2c(N3CCCCC3)nc(NCc3cccc(Cl)c3)nc2cc1OC1CCCC1`
Output line: 43.8

====

Assay: Metabolic stability in mouse liver microsomes assessed as hepatic blood flow preincubated for 10 mins and measured after 60 mins by LC-MS/MS analysis
Format: ADME, Microsome
Conditions: read-out: QH
property.label: hepatic extraction ratio at 1 h
Lab note: record the figure alone, no unit after it.

These recorded examples may help you get a feel for the data.
COc1cc2c(N3CCOCC3)nc(NCc3ccc(F)cc3)nc2cc1OC1CCCC1 | 0.732
Clc1ccc(CNc2nc(N3CCCCC3)c3cc4c(cc3n2)OCO4)cc1 | 0.637
COc1cc2c(N3CCCCC3)nc(NCc3ccc(C(F)(F)F)cc3)nc2cc1OC1CCCC1 | 0.484

Input line: Please give measured hepatic extraction ratio at 1 h of the following entry: `COc1cc2c(N3CCCCC3)nc(N(C)C)nc2cc1OC1CCCC1`
Output line: 0.579

Input line: Please give measured hepatic extraction ratio at 1 h of the following entry: `COc1cc2c(N3CCCCC3)nc(NC(=O)c3ccc(F)cc3)nc2cc1OC1CCCC1`
Output line: 0.494

Reference source: ChEMBL document CHEMBL5512633
